// provenance: the RNAGym collection of RNA variant scans (doi:10.1093/molbev/msab373)

B1: Azoarcus group I ribozyme (parent)
chain: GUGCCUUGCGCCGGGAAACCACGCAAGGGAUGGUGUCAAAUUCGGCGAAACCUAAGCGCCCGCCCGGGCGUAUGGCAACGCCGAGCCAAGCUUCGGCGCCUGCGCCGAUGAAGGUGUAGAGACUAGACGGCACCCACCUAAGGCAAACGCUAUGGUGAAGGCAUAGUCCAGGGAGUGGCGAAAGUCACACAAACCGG

- Variants of: B1
- Assay Info: reverse-splicing fitness (ratio to wild type); higher = more active; in vitro selection; Mg2+ level not given
Assign reverse-splicing fitness to each entry below.
Respond numerically, and do not add a unit to the figure.

# query: reverse-splicing fitness of entry A111U A120G A145G C150G U176A 0.0103

# query: reverse-splicing fitness of entry C82A A111C A120G C150A C169U U176G 0.00682

# query: reverse-splicing fitness of entry C82G A111C A120C C150U C169A 0.0099
